Parameter: IC50. Scope: all listed entries.
Test system: HCT-116 (colorectal carcinoma)
Assay: MTT proliferation assay, HCT-116
Assay type: cell-based
Conditions: Homo sapiens, 72 h

See these solved cases before continuing.
Field IC50 (system: HCT-116 (colorectal carcinoma)) for entry O=C1O[C@H]([C@@H](O)Cn2ccnn2)C(O)=C1O [Compound 4b] = > 100 µM

Field IC50 (system: HCT-116 (colorectal carcinoma)) for entry O=C1O[C@H]([C@@H](O)Cn2cc(C3CC3)nn2)C(O)=C1O [Compound 4l] = > 100 µM

Field IC50 (system: HCT-116 (colorectal carcinoma)) for entry O=C1O[C@H]([C@@H](O)Cn2cc(-c3cc(F)cc(F)c3)nn2)C(O)=C1O [Compound 4d] = 64.8 µM

More entries:
Field IC50 (system: HCT-116 (colorectal carcinoma)) for entry CC(C)(C)c1cn(C/C=C2\OC(=O)C(O)=C2O)nn1 [Compound 7o] = > 100 µM

Field IC50 (system: HCT-116 (colorectal carcinoma)) for entry O=C1O/C(=C\Cn2cc(CCO)nn2)C(O)=C1O [Compound 7q] = > 100 µM

###

Tested on: HepG2 (hepatocellular carcinoma)
Test: MTT proliferation assay, HepG2
Type: cell-based
Settings: Homo sapiens, 72 h
Parameter: IC50. Scope: all listed entries.

Per the records, this compound ( Cc1ccc(S(=O)(=O)NCc2cn(C[C@H](O)[C@H]3OC(=O)C(O)=C3O)nn2)cc1 [Compound 4r] ) has IC50 equal to > 100 µM

Per the records, this compound ( CC(C)(C)c1cn(C/C=C2\OC(=O)C(O)=C2O)nn1 [Compound 7o] ) has IC50 equal to > 100 µM

Per the records, this compound ( NC(=O)c1nnn(Cc2cc(Cl)c(C(=O)c3ccc(Cl)cc3)c(Cl)c2)c1N [Carboxyamidotriazole, carboxyamidotriazole, reference compound] ) has IC50 equal to 40.1 µM

Per the records, this compound ( CCCCCc1ccc(-c2cn(C[C@H](O)[C@H]3OC(=O)C(O)=C3O)nn2)cc1 [Compound 4k] ) has IC50 equal to > 100 µM

Per the records, this compound ( O=C1O/C(=C\Cn2cc(CCCCl)nn2)C(O)=C1O [Compound 7p] ) has IC50 equal to > 100 µM

Per the records, this compound ( O=C1O/C(=C\Cn2cc(-c3cccc(O)c3)nn2)C(O)=C1O [Compound 7j] ) has IC50 equal to > 100 µM

Per the records, this compound ( CC(C)(C)c1cn(C[C@H](O)[C@H]2OC(=O)C(O)=C2O)nn1 [Compound 4o] ) has IC50 equal to > 100 µM

Per the records, this compound ( COc1ccc(-c2cn(C[C@H](O)[C@H]3OC(=O)C(O)=C3O)nn2)cc1 [Compound 4g] ) has IC50 equal to > 100 µM

###

Parameter: pIC50. Scope: all listed entries.
System: HepG2 (hepatocellular carcinoma)
Experiment: MTT proliferation assay, HepG2
Assay type: cell-based
Details: Homo sapiens, 72 h
pIC50: −log10 of the molar value.

See these solved cases before continuing.
Per the records, this molecule ( CCCCCCCCCCc1cn(C/C=C2\OC(=O)C(O)=C2O)nn1 ) has pIC50 equal to < 4.00

Per the records, this molecule ( CCCCCCCCCCc1cn(C[C@H](O)[C@H]2OC(=O)C(O)=C2O)nn1 ) has pIC50 equal to < 4.00

Per the records, this molecule ( O=C1O[C@H]([C@@H](O)Cn2cc(-c3cc(F)cc(F)c3)nn2)C(O)=C1O ) has pIC50 equal to 4.02

More entries:
Per the records, this molecule ( O=C1O/C(=C\Cn2cc(-c3cc(C(F)(F)F)cc(C(F)(F)F)c3)nn2)C(O)=C1O ) has pIC50 equal to < 4.00

Per the records, this molecule ( O=C1O[C@H]([C@@H](O)CO)C(O)=C1O ) has pIC50 equal to < 4.00

Per the records, this molecule ( O=C1O/C(=C\Cn2cc(CCO)nn2)C(O)=C1O ) has pIC50 equal to < 4.00

Per the records, this molecule ( O=c1[nH]cc(F)c(=O)[nH]1 [Compound 5-FU, 5-fluorouracil, reference compound] ) has pIC50 equal to 5.04

Per the records, this molecule ( O=C1O[C@H]([C@@H](O)Cn2cc(CCCCl)nn2)C(O)=C1O ) has pIC50 equal to < 4.00

Per the records, this molecule ( O=C1O/C(=C\Cn2cc(-c3ccc(Br)cc3)nn2)C(O)=C1O ) has pIC50 equal to < 4.00
